Listed here: items and their measured self-cleavage kobs at 10000 uM GlcN6P.
B1: glmS ribozyme (parent)
chain: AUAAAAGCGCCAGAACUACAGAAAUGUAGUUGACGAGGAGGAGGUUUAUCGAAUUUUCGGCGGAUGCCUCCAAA

Variants of: B1
Assay: self-cleavage kobs at 10000 uM GlcN6P; higher = faster cleavage; RNA array
Details: with glucosamine-6-phosphate
Fewer inactive variants are shown than the library holds.
Measured property: self-cleavage kobs at 10000 uM GlcN6P (s⁻¹)

Mutation label | Unit symbol | Readout relation | Val
A12G G51A | s⁻¹ | < | 1e-05
A39C A64G | s⁻¹ | = | 0.00604
U54A U69A | s⁻¹ | = | 8.28e-05
A36U G51C | s⁻¹ | < | 1e-05
G37U U69A | s⁻¹ | < | 1e-05
A14U A53C C67U | s⁻¹ | = | 0.000208
A15G G62U | s⁻¹ | < | 1e-05
A33U A36C G59C | s⁻¹ | < | 1e-05
G32A C71G | s⁻¹ | = | 0.000195
G35C C58A C71A | s⁻¹ | < | 1e-05
A6U A15G U31G G41A | s⁻¹ | < | 1e-05
U30A G44A | s⁻¹ | = | 4.03e-05
U49C U65C | s⁻¹ | < | 1e-05
U54G U57A | s⁻¹ | = | 0.00011
A12G U45A | s⁻¹ | = | 0.00207
C34A G51U | s⁻¹ | = | 0.000537
A15G A52G C67U C71G | s⁻¹ | = | 4.89e-05
A33U U49C | s⁻¹ | < | 1e-05
C11U C50G C58A | s⁻¹ | = | 0.000135
G63U G66U | s⁻¹ | < | 1e-05
C8U G35C | s⁻¹ | < | 1e-05
G32C U69G | s⁻¹ | = | 9.57e-05

Ref: the supplement of paper PMC7125110
